Taken from patent US9567623B2.

- system_tested: nanoKAZ (mutated catalytic 19 kDa domain of Oplophorus luciferase) (Oplophorus gracilirostris, UniProt Q9GV45, A31E/A60N/A81I/F95D/I117V/K70R/L54V/L99Q/M102K/N193R/P142E/Q151K/Q38R/Q45L/V71I/Y165I)
- Construct: secretory signal peptide of Gaussia luciferase (GLsp) (N, cleaved yes); made in house; host or cells: CHO-K1 transiently transfected with pcDNA3-GLsp-nanoKAZ; unpurified culture medium used as the enzyme solution
- Sequence (Q9GV45 other isoform, or with tags, fused parts or gaps with the stated changes): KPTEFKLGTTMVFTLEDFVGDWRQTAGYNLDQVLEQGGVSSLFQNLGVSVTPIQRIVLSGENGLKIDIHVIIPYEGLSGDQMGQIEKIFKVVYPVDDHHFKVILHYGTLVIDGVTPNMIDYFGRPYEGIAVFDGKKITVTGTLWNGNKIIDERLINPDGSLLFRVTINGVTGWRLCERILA
- assay_method_text: Luminescence activity of secreted codon-optimized nanoKAZ domain protein with coelenterazine analogs as substrates
- Assay type: biochemical
- measurement_conditions: relative to coelenterazine = 1.0; 1 μg substrate, 50 mM Tris-HCl (pH 7.6)-10 mM EDTA, 60 seconds
property: Relative maximum luminescence intensity (Imax)
Answers are plain numbers.

>  <compound>
O=c1c(Cc2ccc(F)cc2)nc2c(Cc3ccccc3)[nH]c(-c3ccc(O)cc3)cn1-2 [f-Coelenterazine]

>  <reported>
19.5

$$$$
>  <compound>
O=c1c(Cc2ccc(F)cc2)nc2c(Cc3ccccc3)[nH]c(-c3ccccc3)cn1-2 [C6d-f-Coelenterazine, C6d-f-coelenterazine]

>  <reported>
10.1

$$$$
>  <compound>
Oc1ccc(-c2cn3c(O)c(Cc4ccccc4)nc3c(Cc3ccccc3)n2)cc1 [h-Coelenterazine]

>  <reported>
17.0

$$$$

Proceeding to the next compound to report its Relative maximum luminescence intensity (Imax).
Q: Can you share its Relative maximum luminescence intensity (Imax)? I mean this compound: O=c1c(Cc2ccco2)nc2c(Cc3ccccc3)[nH]c(-c3ccccc3)cn1-2 [Furimazine]
A: 5.5
